Please provide measured pKd for the entries that follow.
Molecular target: T1, Human OSM (human, UniProt P13725 26-221)
T1 construct: Recombinant human OSM; also called hOSM; human Oncostatin M
T1 sequence: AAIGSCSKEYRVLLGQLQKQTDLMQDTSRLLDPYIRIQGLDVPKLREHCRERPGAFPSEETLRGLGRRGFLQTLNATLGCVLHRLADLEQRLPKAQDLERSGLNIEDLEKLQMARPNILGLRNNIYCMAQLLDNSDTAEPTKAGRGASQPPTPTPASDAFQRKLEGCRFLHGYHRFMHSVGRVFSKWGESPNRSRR
Assay: BIAcore kinetics, transfection supernatant
One number for each entry, as −log10 of the molar value.

Consider the worked cases shown below.
Query :: # pKd lookup, item Humanised 10G8 H0 IGHV3_7 + L1 (antibody, V domains shown, built from the statement that the germline CDRH1 was exchanged for the mouse CDRH1 in H0; Human gamma 1/kappa constant regions) VH: EVQLVESGGGLVQPGGSLRLSCAASGFTFSSYWMSWVRQAPGKGLEWVATISDGGSFTYYLDNVRGRFTISRDNAKNSLYLQMNSLRAEDTAVYYCARDVGHTTFWYFDVWGRGTLVTVSS VL: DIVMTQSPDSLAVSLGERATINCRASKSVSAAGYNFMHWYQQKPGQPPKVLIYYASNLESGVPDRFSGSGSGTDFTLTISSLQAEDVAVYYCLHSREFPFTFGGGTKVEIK
Result :: 7.97

Query :: # pKd lookup, item Humanised 10G8 H0 IGHV3_23 + L1 IGKV1_5 (antibody, V domains shown, built from the stated exchange of CDRL2; residue limits derived by me) VH: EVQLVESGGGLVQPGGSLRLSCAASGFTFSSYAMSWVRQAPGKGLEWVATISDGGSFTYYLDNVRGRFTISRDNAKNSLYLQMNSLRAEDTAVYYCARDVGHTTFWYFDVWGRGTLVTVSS VL: DIVMTQSPDSLAVSLGERATINCRASKSVSAAGYNFMHWYQQKPGQPPKVLIYKASSLESGVPDRFSGSGSGTDFTLTISSLQAEDVAVYYCLHSREFPFTFGGGTKVEIK
Result :: 8.03

Query :: # pKd lookup, item Humanised 10G8 H0 + L1 IGKV1_5 (antibody, V domains shown, built from the stated exchange of CDRL2; residue limits derived by me; Human gamma 1/kappa constant regions) VH: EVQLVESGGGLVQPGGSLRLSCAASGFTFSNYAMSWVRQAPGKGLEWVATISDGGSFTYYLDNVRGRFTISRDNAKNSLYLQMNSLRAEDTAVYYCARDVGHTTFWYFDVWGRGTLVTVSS VL: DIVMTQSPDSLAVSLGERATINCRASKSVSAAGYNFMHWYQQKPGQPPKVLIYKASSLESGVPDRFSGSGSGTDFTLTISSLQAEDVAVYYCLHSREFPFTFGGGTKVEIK
Result :: 8.03

Query :: # pKd lookup, item Humanised 10G8 H0 IGHV3_7 + L1 IGKV4_1 (antibody, V domains shown, built from the stated CDR exchanges; residue limits derived by me) VH: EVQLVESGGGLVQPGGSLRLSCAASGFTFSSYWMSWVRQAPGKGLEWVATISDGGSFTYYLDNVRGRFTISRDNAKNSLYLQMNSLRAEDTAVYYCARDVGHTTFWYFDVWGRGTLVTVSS VL: DIVMTQSPDSLAVSLGERATINCRASKSVSAAGYNFMHWYQQKPGQPPKVLIYWASTRESGVPDRFSGSGSGTDFTLTISSLQAEDVAVYYCLHSREFPFTFGGGTKVEIK
Result :: 7.35

Query :: # pKd lookup, item Humanised 10G8 H0L1 (antibody, human IgG1, kappa, V domains shown, IgG1 kappa; mature H0 heavy chain and mature L1 light chain; also called Humanised 10G8 H0L1 parent) VH: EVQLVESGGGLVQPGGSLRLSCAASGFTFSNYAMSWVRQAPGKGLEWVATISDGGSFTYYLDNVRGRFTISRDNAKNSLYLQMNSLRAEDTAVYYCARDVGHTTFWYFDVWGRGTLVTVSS VL: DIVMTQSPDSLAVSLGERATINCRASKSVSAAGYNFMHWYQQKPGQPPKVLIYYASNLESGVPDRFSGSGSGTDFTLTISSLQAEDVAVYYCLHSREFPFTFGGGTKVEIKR
Result :: 9.34

Query :: # pKd lookup, item Humanised 10G8 H0L1(IGKV4-1) (antibody, V domains shown, built from the stated exchange of CDRL2; residue limits derived by me; Human gamma 1/kappa constant regions; also called H0L1(huCDRL2)) VH: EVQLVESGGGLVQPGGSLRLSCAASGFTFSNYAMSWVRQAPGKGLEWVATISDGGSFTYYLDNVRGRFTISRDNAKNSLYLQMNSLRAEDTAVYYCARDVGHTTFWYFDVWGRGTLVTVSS VL: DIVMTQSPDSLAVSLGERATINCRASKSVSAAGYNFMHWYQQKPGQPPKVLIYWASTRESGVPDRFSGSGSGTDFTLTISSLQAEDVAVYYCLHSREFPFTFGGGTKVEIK
Result :: 8.86

Query :: # pKd lookup, item Humanised 10G8 H0(IGHV3-23)L1 (antibody, human IgG1, kappa, V domains shown, IgG1 kappa; also called H0(huCDRH1)L1; H0 (CDRH1 IGHV3_23) L1) VH: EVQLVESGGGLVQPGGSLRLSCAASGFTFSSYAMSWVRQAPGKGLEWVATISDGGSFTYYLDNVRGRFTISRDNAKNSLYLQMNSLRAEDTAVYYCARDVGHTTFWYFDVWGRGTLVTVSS VL: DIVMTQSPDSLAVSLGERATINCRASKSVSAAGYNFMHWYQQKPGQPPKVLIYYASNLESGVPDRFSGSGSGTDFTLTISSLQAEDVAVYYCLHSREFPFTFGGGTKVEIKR
Result :: 9.36

We next turn to a different binder, shown below.
Query :: # pKd lookup, item Humanised 10G8 H0(IGHV3-23)L1(IGK4-1) (antibody, V domains shown, built from the stated exchange of CDRL2; residue limits derived by me; also called H0 IGHV3_23 + L1 IGKV4_1; H0(huCDRH1)L1(huCDRL2)) VH: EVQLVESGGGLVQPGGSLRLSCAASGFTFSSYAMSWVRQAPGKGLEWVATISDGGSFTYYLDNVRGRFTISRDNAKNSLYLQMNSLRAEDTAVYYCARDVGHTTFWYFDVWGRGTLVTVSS VL: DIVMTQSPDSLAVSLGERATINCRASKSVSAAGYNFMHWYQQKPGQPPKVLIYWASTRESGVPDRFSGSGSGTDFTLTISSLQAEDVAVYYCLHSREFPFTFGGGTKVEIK
Result :: 8.81
